src = the supplement of paper PMC10567573

B1: RSPH3 (parent)
chain: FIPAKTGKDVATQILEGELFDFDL

- Variants of: B1
- procedure details: protein stability index of a GFP-peptide fusion (GPS, HEK-293T) (PSI 1-6); higher = more stable;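 note: lentivirally expressed fusions sorted by FACS into six bins by GFP to DsRed ratio, PSI derived from sequencing read proportions per bin multiplied by bin number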
- experimental conditions: c terminus: a fixed tail appended
metric name: protein stability index
The response must contain the number and no unit.

Examples with answers:
sequence variant	protein stability index
P3E	2.83
E18L	2.42
G17I	2.31
D21Y	2.78
E18N	2.38
L24C	2.36
G17E	3
L24D	3.04

Report measured protein stability index; entry is `G17P`
1.37

Return value of protein stability index for input `F20C` , no commentary.
2.16

Could you please provide reported protein stability index for `L19Q` ? Thanks!
1.66

Output measured protein stability index for this item: `L24H`
2.68

Give the reported value of protein stability index for this record: `E18C`
2.17

Annotate the variant `G17C` with its measured protein stability index.
2.54

Return protein stability index for the following variant: `K5E`
2.95

Give protein stability index for the following variant: `Q13N`
1.97

Identify protein stability index associated with the variant `D23S`
2

Report measured protein stability index; entry is `D9P`
1.78

Determine from records and report protein stability index for `L19D`
2.59

Identify measured protein stability index associated with `G7N`
1.85

Identify measured protein stability index corresponding to `E18I`
2.6

Provide one value: measured protein stability index of `L19R`
1.6
